# Test system: SK-MEL-2 melanoma
# methodSummary: NCI tumour cell line growth inhibition, 48 h
quantityName: TGI (µM)
Write down the numeric answer in µM and omit the unit.

compound	valueUnits	TGI
O=CN1N=C(c2cccc(Nc3ccnc4cc(Cl)ccc34)c2)CC1c1ccccc1 (stereo not given)	µM	0.825

Next item in the queue.
Quote TGI reported for ClCc1ccccc1Cn1cnc2c(Cl)ncnc21 please.
18.1

###

# Test system: RXF 393 renal
# methodSummary: NCI tumour cell line growth inhibition, 48 h
quantityName: GI50

Example entries begin here.
> print(dat)
                                   compound  recordedvalue
1  O=c1oc2cc(OC/C(=N/O)c3ccc(F)cc3)ccc2c2ccccc12        14.7 µM
2  CCC1(OC(=O)CN)C(=O)OCc2c1cc1n(c2=O)Cc2cc3ccccc3nc2-1 (stereo unspecified)       0.148 µM
3  CC([C@H]1CC=C2C3CCC4=C[C@@H](N(C)C)CC[C@]4(C)C3CC[C@@]21C)N(C)C (stereo partly specified)        4.28 µM
4  COc1ccc(/C(C#N)=C/c2cc(OC)c(OC)c(OC)c2)cc1        20.6 µM

Fill in GI50 for record COC1=CC(c2ccc[nH]2)=N/C1=C\c1[nH]c(C)c(CC(=O)OCc2ccccc2)c1C
0.43 µM

Find the measured GI50 of O=C(c1ccco1)c1c(C(F)(F)F)n([O-])c2cc(C(F)(F)F)ccc2[n+]1=O and report it.
0.43 µM

###

# System: A549 NSCLC
# methodSummary: NCI tumour cell line growth inhibition, 48 h
Rule: TGI of 20 µM or more gives 1; anything lower gives 0.

Solved entries:
compound	assignedClass
COC1CCC(OC)C(C2(C3CC(OC)CCC3OC)OC(=O)c3ccccc32)C1 (configuration not stated)	1
O[C@@H]1CCC[C@@H]2NC[C@@H](c3ccc4c(c3)OCO4)[C@H]12	1
Cn1c2ccccc2c2cc(N3CCCC3)c3c(c21)C(=O)N(c1ccccc1)C3=O	1
C=CCOC(=O)N1c2ccc(O)cc2[C@@]23O[C@@]24[C@@H]1C#C/C=C\C#C[C@]3(O)C(OC)(OC)C[C@@H]4C	1

Identify whether the reported TGI of the following compound is 20 µM or greater: CC(C)(C)N/N=C(\C(=O)Nc1nc(=S)[nH][nH]1)C1C(=O)Nc2ccccc2S1=O (configuration not stated)
1

Kindly determine if TGI recorded for C[C@H]1CNC(=O)c2cnn3ccc(nc23)N[C@H](C)c2cc(F)ccc2O1 is above or exactly 20 µM.
0

Assess whether reported TGI for C=C1C(=O)O[C@H]2[C@H]1CC/C(COC(=O)CCCc1c[nH]c3ccccc13)=C\CC[C@@]1(C)O[C@@H]21 sits at 20 µM or higher.
1

Is TGI at least 20 µM? Consider COc1ccc2c(c1)NC1(CCN(CCCC(=O)c3ccc(F)cc3)CC1)N=N2
1

Confirm if TGI reported for the compound CN(CCCNC(=O)c1nn(C)c2c1Cc1ccccc1-2)CCCNC(=O)c1nn(C)c2c1Cc1ccccc1-2 is 20 µM or above.
1

Reported TGI at or above 20 µM? CCCCCCCCCCCCCCCCCCNC(=S)/N=C/c1c(O)c2ccccc2[nH]c1=O
1

Given O=c1oc2cc(OC/C(=N/O)c3ccc(F)cc3)ccc2c2ccccc12 , state whether its TGI is at least 20 µM.
1

Given the entry Cc1ccc(-c2cc[n+]3c(n2)oc2ccccc23)cc1 , answer whether its TGI meets or surpasses 20 µM.
1

Quick check: does CCCCCCCCCCCCCC[n+]1ccc(C(N)=O)cc1 have TGI greater than or equal to 20 µM?
0

hey, is TGI for this one >= 20 µM? Cc1nc(/C=C2\C(=O)C=Cc3ccccc32)c(O)o1
1

Check if TGI >= 20 µM (inclusive). Item: COC1=CC(=O)C=C(OC)C1=O
1

Is TGI for CCOC(=O)[C@@]1(C)CC(O)C(=O)N1C (some centres not stated) at or above 20 µM?
1

Identify whether the reported TGI of the following compound is 20 µM or greater: CN(C)CCNC(=O)c1cccc2nc3c(C(=O)NCCN(C)C)cccc3nc12
0

Does the reported TGI for COc1ccc(NC(C(N)=O)c2cc3cc(Br)ccc3nc2Cl)cc1 (configuration not stated) fall at or above the 20 µM mark?
1

Check if TGI >= 20 µM (inclusive). Item: CCOc1ccc(C(C)c2cc3c(cc2OC)OCO3)cc1 (configuration not stated)
1

Could you tell me if the measured TGI of CN(C)CCCC1(c2ccc(F)cc2)OCc2cc(-c3cc4ccccc4s3)ccc21 (configuration not stated) reaches 20 µM or more?
0

Given CCCN(CCC)C(=O)c1nc(N)nc(-c2ccc(OC)cc2)c1-c1ccc(OC)cc1 , state whether its TGI is at least 20 µM.
1

I'd appreciate it if you could say whether N#Cc1cc(Sc2ccc(N)c(C#N)c2)ccc1N has TGI at least equal to 20 µM.
1

Decide: is the reported value of TGI for COC(=O)[C@]1(c2cc3ccccc3[nH]2)CC2CN(C(=O)OCc3ccccc3)C1CC2=O (some centres not stated) equal to or greater than 20 µM?
1
